- target_of_assay: CYP2D6 (Homo sapiens)
- Sequence (P10635 whole entry): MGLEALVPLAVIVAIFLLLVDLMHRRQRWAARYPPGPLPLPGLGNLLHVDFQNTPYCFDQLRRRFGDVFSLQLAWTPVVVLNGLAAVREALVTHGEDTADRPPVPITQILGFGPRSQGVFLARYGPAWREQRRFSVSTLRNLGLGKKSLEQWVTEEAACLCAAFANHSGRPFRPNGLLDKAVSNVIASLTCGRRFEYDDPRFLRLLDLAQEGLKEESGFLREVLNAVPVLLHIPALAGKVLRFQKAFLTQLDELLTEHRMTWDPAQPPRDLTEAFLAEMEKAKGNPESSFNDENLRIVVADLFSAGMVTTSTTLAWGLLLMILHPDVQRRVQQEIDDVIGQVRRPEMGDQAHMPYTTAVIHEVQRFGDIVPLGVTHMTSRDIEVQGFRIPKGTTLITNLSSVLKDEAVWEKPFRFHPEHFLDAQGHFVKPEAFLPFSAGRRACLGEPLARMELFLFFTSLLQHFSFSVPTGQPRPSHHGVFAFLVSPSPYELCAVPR
Could you please mark y for values of IC50 below 3 µM and n for values at or above it?

Example cases with answers are listed next.
| compound | label_class |
| --- | --- |
| Cc1ccc(C2(n3cncc3CN3CCN(S(=O)(=O)c4cnc(N5CCN(C)CC5)s4)CC3)CC2)nc1 | n |
| C[C@H](c1ccc(F)cc1)n1cncc1C1COCC2CN(S(=O)(=O)c3cnc(Nc4ccccn4)s3)CCN21 (stereo partly shown) | y |
| C[C@H](c1ccc(F)cc1)n1cncc1CN1CCN(S(=O)(=O)c2cnc(N3CCN(C4CCN(C)CC4)CC3)s2)CC1 | n |

IN: Please state whether IC50 is below 3 µM for C[C@H](c1ccc(F)cc1)n1cncc1CN1CCN(S(=O)(=O)c2cnc(N3CCN4C[C@H](O)C[C@H]4C3=O)s2)CC1
OUT: n

IN: Please state whether IC50 is below 3 µM for CC1CN2C[C@H](O)C[C@H]2CN1c1ncc(S(=O)(=O)N2CCN(Cc3cncn3[C@H](C)c3ccc(F)cc3)CC2)s1 (single isomer, unassigned)
OUT: n

IN: Please state whether IC50 is below 3 µM for C[C@H](c1ccc(F)cc1)n1cncc1C1CC12CCN(S(=O)(=O)c1cnc(N3CCN(C)CC3)s1)CC2 (single isomer, unassigned) [Compound 43a]
OUT: y

IN: Please state whether IC50 is below 3 µM for C[C@H](c1ccc(F)cc1)n1cncc1CN1CCN(S(=O)(=O)c2cnc(N3CCC(S(C)(=O)=O)C3)s2)CC1 (stereo partly shown)
OUT: n

IN: Please state whether IC50 is below 3 µM for C[C@H](c1ccc(F)cc1)n1cncc1CN1CCN(S(=O)(=O)c2cnc(NCC(F)CN)s2)CC1 (stereo partly shown)
OUT: n

IN: Please state whether IC50 is below 3 µM for C[C@H](c1ccc(F)cc1)n1cncc1C1CC12CCN(S(=O)(=O)c1cnc(N3CCN(C)CC3)s1)CC2 (single isomer, unassigned) [Compound 43b]
OUT: n

IN: Please state whether IC50 is below 3 µM for C[C@H](c1ccc(F)cc1)n1cncc1CN1CCN(S(=O)(=O)c2cnc(N3CCN4C[C@H](O)C[C@H]4C3)s2)CC1
OUT: n

====

- target_of_assay: CYP3A4 (Homo sapiens)
- Sequence (P08684 2-503): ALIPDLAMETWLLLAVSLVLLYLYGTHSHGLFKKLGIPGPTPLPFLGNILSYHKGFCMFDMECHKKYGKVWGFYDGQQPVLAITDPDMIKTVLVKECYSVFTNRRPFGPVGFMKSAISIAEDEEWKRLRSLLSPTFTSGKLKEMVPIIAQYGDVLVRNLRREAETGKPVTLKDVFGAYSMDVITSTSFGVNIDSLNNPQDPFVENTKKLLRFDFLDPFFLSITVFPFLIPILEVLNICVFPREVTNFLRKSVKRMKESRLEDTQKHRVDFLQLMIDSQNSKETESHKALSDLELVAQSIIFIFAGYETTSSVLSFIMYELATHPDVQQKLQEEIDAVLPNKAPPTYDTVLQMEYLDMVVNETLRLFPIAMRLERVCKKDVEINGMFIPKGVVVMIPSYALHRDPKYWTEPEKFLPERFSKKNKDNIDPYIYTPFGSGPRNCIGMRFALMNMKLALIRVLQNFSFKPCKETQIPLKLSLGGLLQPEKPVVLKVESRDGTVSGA
- test_method_notes: IC50 vs CYP3A by inhibition of lopinavir metabolism in human liver microsomes
- Assay type: biochemical
- condition_parameters: pH 7.4, human liver microsomes, 1.5 μM lopinavir, 8 min at 37° C., test concentrations 0.098-100 nM, read-out: 3A4(LPV)
value_kind: log10 IC50 at 8 min (log10 of the value in nM)
Heads up: the numbers are on a log10 scale; they represent IC50 at 8 min in nM.

# count of solved cases: 5
| compound | recorded_result |
| --- | --- |
| C[C@H](c1ccc(F)cc1)n1cncc1CC1(C#N)CCN(S(=O)(=O)c2cnc(N3CCN(C)CC3)s2)CC1 | 0.97 |
| C[C@H](c1ccc(F)cc1)n1cncc1CN1CCN(S(=O)(=O)c2cnc(N3CCC(N)(CO)CC3)s2)CC1 | 0.28 |
| CC(c1cncn1[C@H](C)c1ccc(F)cc1)N1CCN(S(=O)(=O)c2cnc(N3CCN4C[C@H](O)C[C@H]4C3)s2)CC1 (some centres unmarked) | 0.61 |
| C[C@H](c1ccc(F)cc1)n1cncc1CN1CCN(S(=O)(=O)c2cnc(N3CCN4CCC(O)[C@H]4C3)s2)CC1 (some centres unmarked) | 0.41 |
| C[C@H](c1ccc(F)cc1)n1cncc1CN1CCN(S(=O)(=O)c2cnc(N3CC(=O)N4C[C@H](O)C[C@H]4C3)s2)CC1 | 0.72 |

Looking up C[C@H](c1ccc(F)cc1)n1cncc1C1C(=O)OCC2CN(S(=O)(=O)c3cnc(Nc4ccc(C(F)(F)F)cn4)s3)CCN21 (some centres unmarked) , I found its log10 IC50 at 8 min recorded as 0.90

Looking up C[C@H](c1ccc(F)cc1)n1cncc1CN1CCN(S(=O)(=O)c2cnc(NCC(F)CN)s2)CC1 (some centres unmarked) , I found its log10 IC50 at 8 min recorded as 0.23

Looking up C[C@H](c1ccc(F)cc1)n1cncc1CN1CCN(S(=O)(=O)c2cnc(N3CCN4C(=O)OC[C@H]4C3)s2)CC1 , I found its log10 IC50 at 8 min recorded as 0.18

Looking up C[C@H](c1ccc(F)cc1)n1cncc1CN1CCN(S(=O)(=O)c2cnc(N3CCN(C)CC3)s2)CC1 , I found its log10 IC50 at 8 min recorded as 0.00

Looking up C[C@H](c1ccc(F)cc1)n1cncc1CN1CCN(S(=O)(=O)c2cnc(N3CC[C@@H]4NCCO[C@H]4C3)s2)CC1 , I found its log10 IC50 at 8 min recorded as 0.08

Looking up C[C@H](c1ccc(F)cc1)n1cncc1CN1CCN(S(=O)(=O)c2ccc(N3CCNCC3)cn2)CC1 , I found its log10 IC50 at 8 min recorded as 0.64

Looking up C[C@H](c1ccc(F)cc1)n1cnnc1CN1CCN(S(=O)(=O)c2cnc(N3CCN4C[C@H](O)C[C@H]4C3)s2)CC1 , I found its log10 IC50 at 8 min recorded as 1.51

Looking up C[C@H](c1ccc(F)cc1)n1cncc1CN1CCN(S(=O)(=O)c2cnc(N3CCN4C[C@H](O)C[C@H]4C3)s2)CC1 , I found its log10 IC50 at 8 min recorded as 0.58

====

Values of IC50 reported for UniProt:P11712 appear below.

| compound | IC50 |
| --- | --- |
| CC1CN2C[C@H](O)C[C@H]2CN1c1ncc(S(=O)(=O)N2CCN(Cc3cncn3[C@H](C)c3ccc(F)cc3)CC2)s1 (single isomer, unassigned) | 5.7 µM |
| C[C@H](c1ccc(F)cc1)n1cncc1CN1CCN(S(=O)(=O)c2ccc(N3CCNCC3)cn2)CC1 | 6.61 µM |
| C[C@H](c1ccc(F)cc1)n1cncc1CN1CCN(S(=O)(=O)c2cnc(N3CC[C@@H](N4CCOCC4)[C@H](F)C3)s2)CC1 | 4.5 µM |
| C[C@H](c1ccc(F)cc1)n1cncc1C1CC12CCN(S(=O)(=O)c1cnc(N3CCN(C)CC3)s1)CC2 (single isomer, unassigned) [Compound 43a] | > 10 µM |

Then there is this compound:
Measured IC50 for this entry C[C@H](c1ccc(F)cc1)n1cncc1CN1CCN(S(=O)(=O)c2cnc(N3CCNCC3)s2)CC1 on UniProt:P11712: 2.3 µM

====

Values of IC50 reported for CYP2C9 (Homo sapiens, UniProt P11712) appear below.

| compound | IC50 |
| --- | --- |
| C[C@H](c1ccc(F)cc1)n1cncc1CC1(CO)CCN(S(=O)(=O)c2cnc(N3CCN(C)CC3)s2)CC1 [Compound 47] | > 10 µM |

Looking up C[C@H](c1ccc(F)cc1)n1cncc1C1CC12CCN(S(=O)(=O)c1cnc(N3CCN(C)CC3)s1)CC2 (single isomer, unassigned) [Compound 43b] , I found its IC50 recorded as > 10 µM

Looking up C[C@H](c1ccc(F)cc1)n1cncc1CN1CCN(S(=O)(=O)c2cncc(N3CCNCC3)c2)CC1 [Compound 29] , I found its IC50 recorded as > 10 µM

====

Below, each entry is listed alongside its reported IC50.
- target_of_assay: UniProt P19099
- Sequence (P19099 25-503): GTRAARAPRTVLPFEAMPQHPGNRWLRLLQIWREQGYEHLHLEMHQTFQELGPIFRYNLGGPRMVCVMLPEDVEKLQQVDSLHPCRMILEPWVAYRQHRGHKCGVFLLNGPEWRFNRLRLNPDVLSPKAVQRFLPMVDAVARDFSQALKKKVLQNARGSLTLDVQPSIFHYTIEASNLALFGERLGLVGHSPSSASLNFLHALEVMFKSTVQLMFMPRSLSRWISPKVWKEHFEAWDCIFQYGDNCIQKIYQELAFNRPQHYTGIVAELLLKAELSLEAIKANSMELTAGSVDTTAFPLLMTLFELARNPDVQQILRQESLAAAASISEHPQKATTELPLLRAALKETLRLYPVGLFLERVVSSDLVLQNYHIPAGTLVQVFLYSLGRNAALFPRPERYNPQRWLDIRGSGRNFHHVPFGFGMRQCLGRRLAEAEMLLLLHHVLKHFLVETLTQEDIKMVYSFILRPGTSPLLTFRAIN
- test_method_notes: IC50 vs CYP11B2 by aldosterone synthesis in V79 cells
- condition_parameters: V79 cells expressing human CYP11B2, 750 nM DOC, aldosterone HTRF; test concentrations 0.5-10000 nM
Provide the reading as a plain figure in µM.

| molecule | recorded_result |
| --- | --- |
| C[C@H](c1ccc(F)cc1)n1cncc1CN1CCN(S(=O)(=O)c2cnc(N3CCNCC3)cn2)CC1 [Compound 30] | 2.9 |
| CC1CN2C[C@H](O)C[C@H]2CN1c1ncc(S(=O)(=O)N2CCN(Cc3cncn3[C@H](C)c3ccc(F)cc3)CC2)s1 (single isomer, unassigned) [Compound 22] | 1.35 |

Looking up C[C@H](c1ccc(F)cc1)n1cncc1CN1CCN(S(=O)(=O)c2cnc(N3CCN4CCC(O)[C@H]4C3)s2)CC1 (some centres unmarked) [Compound 27] , I found its IC50 recorded as 2.27

Looking up CC1CN(c2ncc(S(=O)(=O)N3CCN(Cc4cncn4[C@H](C)c4ccc(F)cc4)CC3)s2)C[C@@H]2C[C@@H](O)CN12 (some centres unmarked) [Compound 23] , I found its IC50 recorded as 4.57

Looking up C[C@H](c1ccc(F)cc1)n1cncc1CN1CCN(S(=O)(=O)c2cncc(N3CCNCC3)c2)CC1 [Compound 29] , I found its IC50 recorded as 4.37

Looking up C[C@H](c1ccc(F)cc1)n1cncc1C1COCC2CN(S(=O)(=O)c3cnc(Nc4ccccn4)s3)CCN21 (some centres unmarked) [Compound 40] , I found its IC50 recorded as 3.9

Looking up C[C@H](c1ccc(F)cc1)n1cncc1CN1CCN(S(=O)(=O)c2cnc(N3CCC(S(C)(=O)=O)C3)s2)CC1 (some centres unmarked) [Compound 8] , I found its IC50 recorded as 4

Looking up C[C@H](c1ccc(F)cc1)n1cncc1CN1CCN(S(=O)(=O)c2cnc(N3CCN4C[C@H](O)C[C@H]4C3)s2)CC1 [Compound 5] , I found its IC50 recorded as 4.77

Looking up C[C@H](c1ccc(F)cc1)n1cncc1CN1CCN(S(=O)(=O)c2ccc(N3CCNCC3)cn2)CC1 [Compound 28] , I found its IC50 recorded as 4.64

Looking up C[C@H](c1ccc(F)cc1)n1cncc1CN1CCN(S(=O)(=O)c2cnc(N3CCN4C[C@H](O)CC[C@H]4C3)s2)CC1 [Compound 19] , I found its IC50 recorded as 1.93

Looking up C[C@H](c1ccc(F)cc1)n1cncc1CN1CCN(S(=O)(=O)c2cnc(N3CC(=O)N4C[C@H](O)C[C@H]4C3)s2)CC1 [Compound 16] , I found its IC50 recorded as 4.6
